// data source = ChEMBL document CHEMBL4265992

# Target: Acetylcholinesterase (Anopheles gambiae, UniProt Q869C3, G122S)
# Experiment notes: Inhibition of recombinant Anopheles gambiae AChE1 G122S mutant expressed in sf9 insect cells using acetylthiocholine iodide as substrate measured over 60 secs by Ellman assay
Measured attribute: log10 IC50 (log10 of the value in µM)
Please interpret these as log10 of IC50 where IC50 is in µM.

Could you report log10 IC50 for every entry in the following list?
1. COc1ccc(-c2ccc(OCC(=O)NCCCN3CCCCC3)cc2)cc1
2. CCN1CCN(CCCNC(=O)COc2ccc(-c3ccccc3)cc2)CC1
3. CN1CCN(C2CCN(C(=O)COc3ccc(-c4ccccc4)cc3)CC2)CC1
4. CCN1CCN(CCCNC(=O)COc2ccc(I)cc2)CC1

Outgoing:
1: 0.72; 2: 1.20; 3: -0.27; 4: 1.98

Hey, quick one: what's log10 IC50 for each of these?
1. CCN1CCN(C2CCN(C(=O)COc3ccc(I)cc3)CC2)CC1
2. O=C(COc1ccc(-c2ccccc2)cc1)NCCCN1CCCCC1
3. CCN1CCN(C2CCN(C(=O)COc3ccc(-c4ccc([N+](=O)[O-])cc4)cc3)CC2)CC1
4. CCN1CCN(C2CCN(C(=O)COc3ccc4c(c3)CCC4=O)CC2)CC1
5. CCN1CCN(CCCNC(=O)COc2ccc(-c3ccc(OC)cc3)cc2)CC1

Outgoing:
1. 0.79
2. 1.36
3. -0.89
4. -0.42
5. 1.30

# per-item lookup of log10 IC50; items listed below
1. CCN1CCN(C2CCN(C(=O)COc3ccc(-c4ccccc4F)cc3)CC2)CC1
2. CN1CCN(CCCNC(=O)COc2ccc(I)cc2)CC1
3. CN1CCN(CCCNC(=O)COc2ccc(-c3ccccc3)cc2)CC1
4. CCN1CCN(C2CCN(C(=O)COc3ccc(-c4ccc(OC)cc4)cc3)CC2)CC1
5. O=C(COc1ccc(I)cc1)NCCCN1CCCCC1
6. O=C(COc1ccc(-c2ccccc2)cc1)N1CCC(N2CCCCC2)CC1
7. COc1ccc(-c2ccc(OCC(=O)NCCCN3CCN(C)CC3)cc2)cc1

Outgoing:
1: -0.15; 2: 2.11; 3: 1.59; 4: -0.02; 5: 1.49; 6: 0.62; 7: 1.52

----------
# Target: Acetylcholinesterase (Homo sapiens, UniProt P22303)
# Sequence (P22303 whole entry): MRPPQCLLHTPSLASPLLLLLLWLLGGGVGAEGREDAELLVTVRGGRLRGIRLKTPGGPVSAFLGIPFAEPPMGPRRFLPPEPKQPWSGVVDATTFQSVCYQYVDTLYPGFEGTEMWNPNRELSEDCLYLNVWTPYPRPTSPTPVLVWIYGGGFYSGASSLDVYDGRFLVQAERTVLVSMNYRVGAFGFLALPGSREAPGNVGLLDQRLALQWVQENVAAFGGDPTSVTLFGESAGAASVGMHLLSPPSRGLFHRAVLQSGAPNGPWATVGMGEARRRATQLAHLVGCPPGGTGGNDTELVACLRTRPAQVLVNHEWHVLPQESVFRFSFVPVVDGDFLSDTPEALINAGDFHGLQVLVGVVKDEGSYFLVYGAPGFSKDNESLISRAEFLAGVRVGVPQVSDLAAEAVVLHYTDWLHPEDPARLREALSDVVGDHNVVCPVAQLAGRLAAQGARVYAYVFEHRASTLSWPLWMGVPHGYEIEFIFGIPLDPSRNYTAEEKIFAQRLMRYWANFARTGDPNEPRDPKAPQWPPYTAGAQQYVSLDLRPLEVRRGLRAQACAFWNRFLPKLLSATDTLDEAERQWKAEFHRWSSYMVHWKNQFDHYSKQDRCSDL
# Experiment notes: Inhibition of recombinant human AChE using acetylthiocholine iodide as substrate measured over 60 secs by Ellman assay
API: label(entry) gives Criterion met if the entry's IC50 is strictly smaller than 90 µM; on equality or larger values it gives Criterion not met.

Check out these entries, answers already filled in.
                            smiles_notation              group
0  COc1ccc(-c2ccc(OCC(=O)NCCCN3CCCCC3)cc2)cc1      Criterion met
1  CN1CCN(CCCNC(=O)COc2ccc(-c3ccccc3)cc2)CC1  Criterion not met
2  CCN1CCN(CCCNC(=O)COc2ccc(-c3ccc(OC)cc3)cc2)CC1  Criterion not met
3    CCN1CCN(C(=O)COc2ccc(-c3ccccc3)cc2)CC1  Criterion not met
4        CCN1CCN(CCCNC(=O)COc2ccc(I)cc2)CC1      Criterion met

Incoming: Strictly below 90 µM in IC50? `O=C(COc1ccc(-c2ccccc2)cc1)N1CCC(N2CCOCC2)CC1`
Outgoing: Criterion not met

Incoming: Next: `CCN1CCN(CCCNC(=O)COc2ccc(-c3ccccc3)cc2)CC1`
Outgoing: Criterion not met

----------
Assignment: determine reported Ratio IC50 for the given compounds.
# Experiment notes: Selectivity ratio of IC50 for recombinant human AChE to IC50 for recombinant Anopheles gambiae AChE1
Answers are plain numbers.

                            smiles_notation  reported_result
0  CCN1CCN(C2CCN(C(=O)COc3ccc(-c4ccc(OC)cc4)cc3)CC2)CC1               45
1  CCN1CCN(CCCNC(=O)COc2ccc(-c3ccc(OC)cc3)cc2)CC1               19
2    O=C(COc1ccc(-c2ccccc2)cc1)NCCCN1CCCCC1              5.7

Can you give me Ratio IC50 for all of these, one by one?
1. COc1ccc(-c2ccc(OCC(=O)NCCCN3CCCCC3)cc2)cc1
2. COc1ccc(-c2ccc(OCC(=O)NCCCN3CCN(C)CC3)cc2)cc1

Outgoing:
[3.1, 7.6]

----------
# Target: Acetylcholinesterase (Aedes aegypti)
# Sequence (Q6A2E2 whole entry): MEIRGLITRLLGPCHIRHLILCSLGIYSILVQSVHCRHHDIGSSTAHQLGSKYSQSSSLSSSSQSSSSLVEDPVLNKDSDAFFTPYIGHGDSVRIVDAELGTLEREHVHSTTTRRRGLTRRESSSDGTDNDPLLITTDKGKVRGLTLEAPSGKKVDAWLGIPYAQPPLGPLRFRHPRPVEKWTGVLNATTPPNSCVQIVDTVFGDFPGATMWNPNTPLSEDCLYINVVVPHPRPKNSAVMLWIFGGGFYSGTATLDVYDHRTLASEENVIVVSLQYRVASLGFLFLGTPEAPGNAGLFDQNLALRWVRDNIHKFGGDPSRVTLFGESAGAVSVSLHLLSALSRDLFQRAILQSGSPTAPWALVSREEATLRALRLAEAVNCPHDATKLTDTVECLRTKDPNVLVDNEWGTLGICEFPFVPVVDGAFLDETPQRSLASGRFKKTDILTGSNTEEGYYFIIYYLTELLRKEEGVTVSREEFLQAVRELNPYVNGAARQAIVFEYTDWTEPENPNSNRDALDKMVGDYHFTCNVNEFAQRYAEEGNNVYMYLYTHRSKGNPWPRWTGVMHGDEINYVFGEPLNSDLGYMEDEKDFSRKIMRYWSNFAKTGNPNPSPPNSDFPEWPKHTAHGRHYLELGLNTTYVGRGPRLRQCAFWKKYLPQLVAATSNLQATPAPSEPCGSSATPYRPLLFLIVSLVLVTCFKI
# Experiment notes: Inhibition of recombinant Aedes aegypti AChE1 expressed in sf9 insect cells using acetylthiocholine iodide as substrate measured over 60 secs by Ellman assay
Measured attribute: IC50 (µM)
Numbers only, in µM.

Example cases with answers are listed next.
In [3]: df
Out[3]:
                            smiles_notation  unit_abbreviation  reported_result
0  CCN1CCN(C2CCN(C(=O)COc3ccc(-c4ccccc4F)cc3)CC2)CC1                 µM             0.22
1  COc1ccc(-c2ccc(OCC(=O)NCCCN3CCCCC3)cc2)cc1                 µM              3.9
2  CCN1CCN(C2CCN(C(=O)COc3ccc(I)cc3)CC2)CC1                 µM              1.5
3  CN1CCN(CCCNC(=O)COc2ccc(-c3ccccc3)cc2)CC1                 µM               12
4    O=C(COc1ccc(-c2ccccc2)cc1)NCCCN1CCCCC1                 µM              9.9
5  CCN1CCN(C2CCN(C(=O)COc3ccc(-c4ccc([N+](=O)[O-])cc4)cc3)CC2)CC1                 µM             0.11

Working through the 6 compounds below one at a time, give IC50 for each.
1. CN1CCN(C2CCN(C(=O)COc3ccc(-c4ccccc4)cc3)CC2)CC1
2. CCN1CCN(C2CCN(C(=O)COc3ccc(-c4ccccc4)cc3)CC2)CC1
3. COc1ccc(-c2ccc(OCC(=O)NCCCN3CCN(C)CC3)cc2)cc1
4. CCN1CCN(C2CCN(C(=O)COc3ccc4c(c3)CCC4=O)CC2)CC1
5. O=C(COc1ccc(I)cc1)NCCCN1CCCCC1
6. CCN1CCN(C2CCN(C(=O)COc3ccc(-c4ccc(OC)cc4)cc3)CC2)CC1

Outgoing:
1: 0.25; 2: 0.22; 3: 16; 4: 0.2; 5: 36; 6: 0.23

Field: IC50. Fill in for each record below.
1. CCN1CCN(CCCNC(=O)COc2ccc(-c3ccccc3)cc2)CC1
2. O=C(COc1ccc(-c2ccccc2)cc1)N1CCC(N2CCCCC2)CC1
3. CCN1CCN(CCCNC(=O)COc2ccc(I)cc2)CC1

Outgoing:
3.3
4
72

Can you give me IC50 for all of these, one by one?
1. CCN1CCN(CCCNC(=O)COc2ccc(-c3ccc(OC)cc3)cc2)CC1
2. CN1CCN(CCCNC(=O)COc2ccc(I)cc2)CC1

Outgoing:
1: 3.8; 2: 112

----------
# Experiment notes: Selectivity ratio of IC50 for recombinant human AChE to IC50 for recombinant Aedes aegypti AChE1
Measured attribute: Ratio IC50
Numbers only.

                            smiles_notation  reported_result
0  CCN1CCN(CCCNC(=O)COc2ccc(-c3ccccc3)cc2)CC1               32

Need Ratio IC50 for each of these molecules.
1. CCN1CCN(C2CCN(C(=O)COc3ccc(-c4ccccc4F)cc3)CC2)CC1
2. CCN1CCN(C2CCN(C(=O)COc3ccc(-c4ccc(OC)cc4)cc3)CC2)CC1
3. O=C(COc1ccc(-c2ccccc2)cc1)NCCCN1CCCCC1

Outgoing:
79
45
5.7

The following molecules each have a reported value; give each one's Ratio IC50.
1. CN1CCN(CCCNC(=O)COc2ccc(I)cc2)CC1
2. CCN1CCN(C2CCN(C(=O)COc3ccc4c(c3)CCC4=O)CC2)CC1
3. CCN1CCN(C2CCN(C(=O)COc3ccc(-c4ccc([N+](=O)[O-])cc4)cc3)CC2)CC1

Outgoing:
1. 1.2
2. 16
3. 19

// batch mode: one Ratio IC50 value per listed entry
1. CCN1CCN(CCCNC(=O)COc2ccc(I)cc2)CC1
2. CN1CCN(C2CCN(C(=O)COc3ccc(-c4ccccc4)cc3)CC2)CC1
3. CCN1CCN(C2CCN(C(=O)COc3ccc(I)cc3)CC2)CC1
4. CCN1CCN(CCCNC(=O)COc2ccc(-c3ccc(OC)cc3)cc2)CC1

Outgoing:
1: 1.2; 2: 40; 3: 5.6; 4: 19

----------
# Experiment notes: Selectivity ratio of IC50 for recombinant human AChE to IC50 for recombinant Anopheles gambiae AChE1
Please provide measured Ratio IC50 for the entries that follow.
Give bare numbers.

>>> df
                            smiles_notation  reported_result
0  CN1CCN(C2CCN(C(=O)COc3ccc(-c4ccccc4)cc3)CC2)CC1               40
1  O=C(COc1ccc(-c2ccccc2)cc1)N1CCC(N2CCCCC2)CC1              1.2
2        CCN1CCN(CCCNC(=O)COc2ccc(I)cc2)CC1              1.2

Dear reader, for each entry below, please note its Ratio IC50.
1. CCN1CCN(C2CCN(C(=O)COc3ccc4c(c3)CCC4=O)CC2)CC1
2. CCN1CCN(C2CCN(C(=O)COc3ccc(I)cc3)CC2)CC1
3. CN1CCN(CCCNC(=O)COc2ccc(-c3ccccc3)cc2)CC1

Outgoing:
[16, 5.6, 8.8]

State recorded Ratio IC50 for all listed compounds.
1. O=C(COc1ccc(I)cc1)NCCCN1CCCCC1
2. CCN1CCN(C2CCN(C(=O)COc3ccc(-c4ccccc4F)cc3)CC2)CC1

Outgoing:
0.3
79

For each entry beneath this line, provide reported Ratio IC50.
1. CCN1CCN(C2CCN(C(=O)COc3ccc(-c4ccc([N+](=O)[O-])cc4)cc3)CC2)CC1
2. CCN1CCN(CCCNC(=O)COc2ccc(-c3ccccc3)cc2)CC1
3. CN1CCN(CCCNC(=O)COc2ccc(I)cc2)CC1

Outgoing:
19
32
1.2
